Target: T1, GLP-1R (INS1e assay) (UniProt P32301 22-463, limits assumed)
T1 sequence (looked up): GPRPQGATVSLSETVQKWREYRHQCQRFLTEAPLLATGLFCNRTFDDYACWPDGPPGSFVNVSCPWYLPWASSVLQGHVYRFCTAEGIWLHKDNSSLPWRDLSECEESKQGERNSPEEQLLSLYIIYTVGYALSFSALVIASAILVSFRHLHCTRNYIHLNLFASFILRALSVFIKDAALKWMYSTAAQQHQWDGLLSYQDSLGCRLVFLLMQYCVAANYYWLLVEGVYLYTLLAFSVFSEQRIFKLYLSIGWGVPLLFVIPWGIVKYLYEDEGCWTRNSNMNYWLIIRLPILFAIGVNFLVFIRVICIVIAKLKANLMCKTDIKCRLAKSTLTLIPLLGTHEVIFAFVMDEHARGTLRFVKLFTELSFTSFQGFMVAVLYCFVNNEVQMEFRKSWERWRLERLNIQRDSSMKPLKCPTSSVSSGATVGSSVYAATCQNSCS
Test: cell-based or functional assay
Starred links: 1 amine or outer side, 2 acyl side, 3 side chain; linkers in the order of their positions; H or OH if unused. Non-standard residues stand in square brackets, D forms with d. Groups on a side chain read outwards from the residue. Primed or numbered codes have the meaning given here. No end group written: not given here. *: point of attachment. Dodecylbenzoate = dodecylbenzoyl lipid group; γGlu = O=C(O)[C@H](CCC(=O)[*:2])N[*:1]; Stearoyl = CCCCCCCCCCCCCCCCCC(=O)*; αMeF = C[C@](N)(Cc1ccccc1)C(=O)O; αMeK = C[C@](N)(CCCCN)C(=O)O; Lauroyl = CCCCCCCCCCCC(=O)*; αMeS = C[C@](N)(CO)C(=O)O; PEG2′ = not defined here; Aib = CC(C)(N)C(=O)O
The reader will find reported INS1e assay EC50 GLP-1 R n1 values listed item by item below.
Report only the number, with the unit nM understood.

Consider the following illustrative entries.
H[Aib]EGS[αMeF]TSDV[αMeS]S[αMeF]LEGEAA[αMeK]E[αMeF]IA[αMeF]VVK([PEG2′-Dodecylbenzoate])GG-NH2 [SEQ ID NO 179]
0.336
H[Aib]EGS[αMeF]TSDV[αMeS]S[αMeF]LEGEAA[αMeK]E[αMeF]IA[αMeF]VVK([PEG2′-PEG2′-Stearoyl])GG-NH2 [SEQ ID NO 189]
0.114
H[Aib]EGS[αMeF]TSDV[αMeS]S[αMeF]LEGEAAK([PEG2′-PEG2′-γGlu-Stearoyl])E[αMeF]IA[αMeF]VV[αMeK]GG-NH2 [SEQ ID NO 33]
3.59

Qu. Data request, read-out INS1e assay EC50 GLP-1 R n1, for H[Aib]EGS[αMeF]TSDV[αMeS]S[αMeF]LEGEAA[αMeK]E[αMeF]IA[αMeF]VVK([PEG2′-Lauroyl])GG-NH2 [SEQ ID NO 170]
Ans. 0.548

Qu. Data request, read-out INS1e assay EC50 GLP-1 R n1, for H[Aib]EGS[αMeF]TSDV[αMeS]S[αMeF]LEGEAAK([PEG2′-PEG2′-PEG2′-Stearoyl])E[αMeF]IA[αMeF]VVKGG-NH2 [SEQ ID NO 56]
Ans. 0.0352
